Each entry below lists one item and its recorded selectivity ratio value.
# protocolSummary: Selectivity index, ratio of CC50 for MDCK cells to IC50 for Influenza A virus (A/WSN/33(H1N1)) infected in MDCK cells
# Assay type: toxicity, cell-based
# condition: dog, read-out: Ratio CC50/IC50
property: selectivity ratio

[[record]]
smi = "COC(=O)C1=C[C@H](n2cc(CNC(=O)[C@]34CCC(C)(C)C[C@H]3C3=CC[C@@H]5[C@@]6(C)CC[C@H](O)C(C)(C)[C@@H]6CC[C@@]5(C)[C@]3(C)CC4)nn2)[C@@H](NC(C)=O)[C@H]([C@H](O)[C@H](O)CO)O1"
ltgteq = ">"
numericreadout = 7.1

[[record]]
smi = "COC(=O)C1=C[C@H](NC(=O)[C@]23CC[C@@H](C)[C@H](C)[C@H]2C2=CC[C@@H]4[C@@]5(C)CC[C@H](O)C(C)(C)[C@@H]5CC[C@@]4(C)[C@]2(C)CC3)[C@H](NC(C)=O)[C@H]([C@H](OC(C)=O)[C@@H](COC(C)=O)OC(C)=O)O1"
ltgteq = "="
numericreadout = 7.1


These data points were gathered from ChEMBL document CHEMBL4261546.
